System: KM12 colon
Assay: NCI tumour cell line growth inhibition, 48 h
Quick reference: GI50 of the listed items.
measurement name: GI50

[[record]]
chemical_smiles = "O=C1C(=O)c2c(ccc3ccccc23)-c2ccccc21"
study_target = "KM12 colon"
result = "1.6 µM"

[[record]]
chemical_smiles = "O=C(Nc1cccc(C(F)(F)F)c1)Nc1cc(S(=O)(=O)NC2CC2)ccc1-c1ccsc1"
study_target = "KM12 colon"
result = "4.46 µM"

[[record]]
chemical_smiles = "Cc1cccc(Cc2cnc(NC(=O)CCCOc3ccc(Cl)cc3)s2)c1"
study_target = "KM12 colon"
result = "4.53 µM"

[[record]]
chemical_smiles = "COc1ccc(Cl)cc1Nc1nc(C(F)(F)F)ccc1C(=O)N/N=C/c1ccc(Cl)cc1"
study_target = "KM12 colon"
result = "5.16 µM"

